Molecular target: GlcNAc(b1-4)GlcNAc(b1-4)GlcNAc
Experiment: glycan array binding signal (z-score within array); higher = stronger binding
Conditions: glycan notation: IUPAC condensed, linker removed
This is one part of a sample in which the strongest signals are shown more often than they occur.
MEASURED ATTRIBUTE: glycan array binding signal (z-score)
Just the number, please, no unit after it.

BINDER | glycan array binding signal (z-score)
ABA (Agaricus bisporus), Q00022 (protein) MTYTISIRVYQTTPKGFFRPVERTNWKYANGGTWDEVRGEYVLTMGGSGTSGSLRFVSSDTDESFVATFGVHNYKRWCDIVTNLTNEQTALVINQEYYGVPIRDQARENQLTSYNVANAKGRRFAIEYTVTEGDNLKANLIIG | -0.093
Surfactant Protein D (Human); Neck + Carbohydrate Recognition Domain (NCRD) (Homo sapiens) (protein) MLLFLLSALVLLTQPLGYLEAEMKTYSHRTMPSACTLVMCSSVESGLPGRDRDGREGPRGEKGDPGLPGAAGQAGMPGQAGPVGPKGDNGSVGEPGPKGDTGPSGPPGPPGVPGPAGREGALGKQGNIGPQGKPGPKGEAGPKGEVGAPGMQGSAGARGLAGPKGERGVPGERGVPGNTGAAGSAGAMGPQGSPGARGPPGLKGDKGIPGDKGAKGESGLPDVASLRQQVEALQGQVQHLQAAFSQYKKVELFPNGQSVGEKIFKTAQFVKPFTEAQLLCTQAGGQLASPRSAAENAALQQLVVAKNEAAFLSMTDSKTEGKFTYPTGESLVYSNWAPGEPNDDGGSEDCVEIFTNGKWNDRACGEKRLVVCEF | -0.24

Looking up EULS2 M3 (Oryza sativa) (protein) MVYCRANPNYAMTARNGAVVLAPANPKDEYQHWIKDMRWSTSIKDEEGYPAFALVNKATGQAIKHSLGQSHPVRLVPYNPEVMDESVLWTESRDVGNGFRCIRMVNNIYLNFDAFHGDKYHGGVRDGTDIVLWKLCEGDSLRWKIQPYYILEQKLISEEDLNSAVDHHHHHH , I found its glycan array binding signal (z-score) recorded as -0.413

Where do the numbers come from? From the supplement of paper PMC8728848.
